Target: PRMT5 (Homo sapiens)
Construct: purchased Viva (custom protein)
Sequence (O14744 whole entry): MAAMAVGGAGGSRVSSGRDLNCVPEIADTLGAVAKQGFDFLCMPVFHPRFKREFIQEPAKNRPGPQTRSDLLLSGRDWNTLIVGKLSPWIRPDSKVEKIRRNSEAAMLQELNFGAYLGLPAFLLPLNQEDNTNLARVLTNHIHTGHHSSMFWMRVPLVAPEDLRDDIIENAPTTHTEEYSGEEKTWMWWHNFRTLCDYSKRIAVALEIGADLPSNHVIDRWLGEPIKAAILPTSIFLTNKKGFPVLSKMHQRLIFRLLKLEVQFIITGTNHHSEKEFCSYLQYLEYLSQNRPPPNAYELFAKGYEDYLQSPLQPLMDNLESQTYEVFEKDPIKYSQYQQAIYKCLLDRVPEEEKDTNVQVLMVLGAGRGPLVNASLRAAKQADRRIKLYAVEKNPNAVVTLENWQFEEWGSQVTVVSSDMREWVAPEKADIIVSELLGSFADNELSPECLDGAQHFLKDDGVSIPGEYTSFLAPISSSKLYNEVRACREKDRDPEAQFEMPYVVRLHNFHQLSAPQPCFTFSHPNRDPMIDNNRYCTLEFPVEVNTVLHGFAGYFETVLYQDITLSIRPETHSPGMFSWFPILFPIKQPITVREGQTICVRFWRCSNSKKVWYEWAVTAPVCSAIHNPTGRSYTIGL
Sequence (Q9BQA1 whole entry partner): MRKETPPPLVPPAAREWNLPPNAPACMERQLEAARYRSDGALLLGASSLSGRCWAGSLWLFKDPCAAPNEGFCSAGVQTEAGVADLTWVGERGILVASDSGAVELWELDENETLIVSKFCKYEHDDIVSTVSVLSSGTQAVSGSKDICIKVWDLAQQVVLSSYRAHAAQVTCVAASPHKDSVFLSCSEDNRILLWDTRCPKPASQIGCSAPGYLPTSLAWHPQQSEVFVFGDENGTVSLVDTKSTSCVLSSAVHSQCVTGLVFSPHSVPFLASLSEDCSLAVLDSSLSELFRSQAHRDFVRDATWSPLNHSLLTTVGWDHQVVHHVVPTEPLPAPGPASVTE
Experiment: PRMT5 biochemical IC50 assay with MTA as cofactor
Settings: PRMT5, MTA as cofactor; read-out: MTA IC50
RESULT TYPE: IC50

Please review the following examples before continuing.
* COc1ncc(NC(=O)C(=O)N2C[C@@H](C)CC[C@@H]2c2csc3ccccc23)cc1C(N)=O (racemic) [Compound 501] | 50 to 500 nM
* C[C@H]1CC[C@H](c2ccc(F)cc2)N(C(=O)C(=O)Nc2cnc(N)c(C3CC3)c2)C1 [Compound 989] | < 50 nM
* Cc1cc(NC(=O)C(=O)N2C[C@H]3CC[C@H](C3)[C@H]2c2ccccc2)cnc1N (single isomer, unassigned) [Compound 65] | 50 to 500 nM

Kindly consider the entry below.
Quick check: IC50 of Cc1cc([C@H]2CC[C@H](C)CN2C(=O)C(=O)Nc2cncc(C(N)=O)c2)ccc1O (single isomer, unassigned) [Compound 330] ?
> 500 nM

---

Target: PRMT5 (Homo sapiens)
Construct: purchased Viva (custom protein)
Assay: PRMT5 biochemical IC50 assay with MTA as cofactor
Conditions: PRMT5, MTA as cofactor; read-out: MTA IC50
pIC50: −log10 of the molar value.
RESULT TYPE: pIC50

Example cases with answers are listed next.
• Cc1cc(NC(=O)C(=O)N2C[C@H](C)CC[C@H]2c2ccc(NS(C)(=O)=O)nc2)cnc1N (single isomer, unassigned) = 6.30 to 7.30
• Cc1cc(NC(=O)C(=O)N2C[C@H](C)CC[C@H]2c2ccc3c(cnn3CCN(C)C)c2)cnc1N (single isomer, unassigned) = > 7.30
• CCc1cc(NC(=O)C(=O)N2C[C@@H](C)CC[C@@H]2c2ccc3sc(C45CC(C4)N(C)C5)nc3c2)cnc1N = > 7.30
• C[C@@H]1CC[C@@H](c2ccc(OC(F)F)cc2)N(C(=O)C(=O)Nc2cncc(C(N)=O)c2)C1 (racemic) = > 7.30
• CCc1cc(NC(=O)C(=O)N2C[C@@H](C)CC[C@@H]2c2ccc3c(c2)CCC(=O)N3)cnc1N (single isomer, unassigned) = < 6.30

Returns the measured pIC50 for the input compound. Input: CCc1cc(NC(=O)C(=O)N2C[C@@H](C)CC[C@@H]2c2ccc3nn(C4CC(C)(C)N(C)C(C)(C)C4)cc3c2)cnc1N (racemic)
> 7.30

---

Catalogue of pIC50 readings, one per entry.
System: HAP1 MTAP-deleted cell line
Test: SDMA in-cell western assay, HAP1 MTAP-deleted
Format: cell-based
Details: Homo sapiens, HAP1, read-out: HAP1 MTAP deleted IC50
pIC50: −log10 of the molar value.

• Cc1cc(NC(=O)C(=O)N2C[C@@H](C)CC[C@@H]2c2ccc3sc(CCN(C)C)nc3c2)cnc1N (single isomer, unassigned) = > 7.00
• Cc1cncc(NC(=O)C(=O)N2C[C@@H](C)CC[C@@H]2c2ccccc2)c1 (single isomer, unassigned) = < 6.00
• C[C@@H]1CC[C@H](c2ccccc2)N(C(=O)C(=O)Nc2cncc(C(N)=O)c2)C1 (single isomer, unassigned) = < 6.00
• Cc1cc(NC(=O)C(=O)N2C[C@H](C)CC[C@H]2c2ccc3c(c2)CCC(=O)N3)cnc1N (single isomer, unassigned) = > 7.00
• C[C@H]1CC[C@H](c2ccc3[nH]ncc3c2)N(C(=O)C(=O)Nc2cncc(C(N)=O)c2)C1 (single isomer, unassigned) = < 6.00
• Cc1cc(NC(=O)C(=O)N2C[C@H](C)CC[C@@H]2c2ccc3c(c2)CCC(=O)N3)cnc1N (racemic) = > 7.00
• Cc1cc(NC(=O)C(=O)N2C[C@H](C)CC[C@H]2c2ccc3[nH]ncc3c2)cnc1N (single isomer, unassigned) = > 7.00
• Cc1cc(NC(=O)C(=O)N2C[C@@H](C)CC[C@@H]2c2ccccc2)cnc1N (single isomer, unassigned) = > 7.00

Give HAP1 MTAP-deleted cell line pIC50 for C[C@@H]1CC[C@@H](c2ccc3c(c2)CCC(=O)N3)N(C(=O)C(=O)Nc2cncc(C(N)=O)c2)C1 (single isomer, unassigned)
< 6.00

Provide the documented pIC50 with HAP1 MTAP-deleted cell line as the system for C[C@@H]1CC[C@@H](c2ccc3[nH]cnc3c2)N(C(=O)C(=O)Nc2cncc(C(N)=O)c2)C1 (single isomer, unassigned)
6.00 to 7.00

Record lookup: for HAP1 MTAP-deleted cell line, what pIC50 belongs to Cc1cc(NC(=O)C(=O)N2C[C@H](C)CC[C@H]2c2ccc3c(c2)CC(=O)N3)cnc1N (racemic) ?
> 7.00

Query pIC50 on HAP1 MTAP-deleted cell line for C[C@@H]1CC[C@@H](c2ccc3[nH]ccc3c2)N(C(=O)C(=O)Nc2cncc(C(N)=O)c2)C1 (single isomer, unassigned)
< 6.00

Find the measured pIC50: item Cc1cc(NC(=O)C(=O)N2CCCC[C@@H]2c2ccccc2)cnc1C (single isomer, unassigned) , target or system HAP1 MTAP-deleted cell line.
< 6.00
